Every entry's value here was drawn from PubChem BioAssay AID1259343.

Experiment: Mycobacterium tuberculosis growth inhibition, primary screen (AID 1259343)
Conditions: at 10 µM, active compounds read high
About 2,900 (47%) of roughly 6,200 compounds were called active. The set was probably picked from earlier hits. The list shows a part of the results.
Assign inhibition to each entry below.
Numeric answer only, unit % assumed.

Data point: O=C(CCN1CCCCC1c1cccnc1)Nc1nc2ccccc2s1 (stereo not drawn) ; inhibition = 35.6

Data point: c1ccc(-c2nc3c(ccc4ccccc43)[nH]2)nc1 ; inhibition = 96.1

Data point: O=[N+]([O-])c1cccc(-c2csc(Nc3ccc(Cl)cc3)n2)c1 ; inhibition = 88.3

Data point: CCCC1CCC(c2ccc(C#N)c(=O)[nH]2)CC1 (stereo not drawn) ; inhibition = 89.8

Data point: O=C(c1ccc(Oc2ccccc2)cc1)C1CCCN(C(=O)c2ccc3nccnc3c2)C1 (stereo not drawn) ; inhibition = 56

Data point: Cc1sc2ncnc(SCC(=O)c3ccc(Cl)s3)c2c1C ; inhibition = 13.9

Data point: N#CC(=Cc1ccc(Cl)cc1)c1nc(C2CC2)cs1 ; inhibition = 20.5

Data point: COC(=O)C1=C(C(=O)OC)SC(=CC(=S)c2ccc(OC)cc2)S1 ; inhibition = 82.8

Data point: O=C(Nc1cccc(Cl)c1)Oc1ccccc1-c1ccccc1 ; inhibition = 17.6

Data point: COC(=O)C1=C(C(=O)OC)C2=S(SC(c3ccc(OC)cc3)=C2)S1 (stereo not drawn) ; inhibition = 7.91

Data point: Nc1nc(-c2cc(F)ccc2F)cs1 ; inhibition = 77.2

Data point: CC1CC1c1ccc(CCC(=O)Nc2ccccn2)o1 (stereo not drawn) ; inhibition = 48.8

Data point: COc1c(C)cc(C(=O)C2CCCN(Cc3cnc(SC)nc3)C2)cc1C (stereo not drawn) ; inhibition = 47.7

Data point: Cc1c(C(=O)OCC(C)C)[nH]c2c1C(=O)CCC2 ; inhibition = 60.5

Data point: S=c1[nH]nc(CSc2nc3ccccc3s2)o1 ; inhibition = -31.5

Data point: C=CCNc1nc(-c2cc(F)ccc2F)cs1 ; inhibition = 45.9

Data point: O=C(O)Cc1ccc(NC(=O)c2cccc(Br)c2)cc1 ; inhibition = 89.2

Data point: Cc1cccc(CN(CCN2CCOCC2)Cc2ccc(C(O)(c3cccc(F)c3)c3cccc(F)c3)o2)c1 ; inhibition = 17.9

Data point: Cc1csc(C(C#N)C(=O)Nc2ccccc2)n1 (stereo not drawn) ; inhibition = -32.9

Data point: COc1ccc(CC(=O)N(CC(=O)N2CCc3sccc3C2c2ccc(Cl)cc2Cl)Cc2ccc(F)cc2)cc1 (stereo not drawn) ; inhibition = 3.26

Data point: c1ccc2sc(Sc3ncnc4sccc34)nc2c1 ; inhibition = 59.5

Data point: c1ccc(-c2nc3cc4ccccc4cc3[nH]2)nc1 ; inhibition = 17.5

Data point: O=S(Cc1cccc(C(F)(F)F)c1)Cc1ccc(Cl)cc1Cl (stereo not drawn) ; inhibition = 42.1

Data point: CC(C)CCC(=O)C(C#N)c1nnc(-c2ccccc2)n1C (stereo not drawn) ; inhibition = 85.2

Data point: CCc1nc(Nc2cccc(C(F)(F)F)c2)c2ccc(Cl)cc2n1 ; inhibition = 88.9

Data point: CS(=O)(=O)NCc1cccc(-c2ccc(C#N)s2)c1 ; inhibition = 2.92

Data point: Cc1ccc(-c2csc(N)n2)cc1 ; inhibition = 101

Data point: CCCCNC(=S)NNc1ncnc2sc(C)c(C)c12 ; inhibition = 65.6

Data point: CCCc1cc(=O)[nH]c(SCCOc2ccc(Br)cc2)n1 ; inhibition = 18.1

Data point: c1ccc(-c2nc3c(ccc4ccccc43)[nH]2)cc1 ; inhibition = 89.8

Data point: O=c1[nH]c2ccc(-c3csc(-c4ccc(F)cc4)n3)cc2o1 ; inhibition = 39.4

Data point: O=S(=O)(c1cc(Cl)cc(Cl)c1O)N1CCOCC1 ; inhibition = 19.4

Data point: COC(=O)C1=C(C(=O)OC)SC(=C2C(=S)C(C)(C)Nc3ccccc32)S1 ; inhibition = 27.1

---

Assay: Mycobacterium tuberculosis growth inhibition, primary screen (AID 1259343)
Conditions: at 10 µM, active compounds read high
Screen size: about 6,200 compounds; about 2,900 (47%) were called active. The set was probably picked from earlier hits. Some of the results follow.
Kind request: treat 90% as inclusive, so inhibition at 90% or higher is Yes, anything lower is No.

[in] Hi, just wondering whether COc1ccc(/C=N\NC(=O)c2ccncc2)c(C(=O)O)c1OC shows inhibition of 90% or higher.
[out] No

[in] Hi, just wondering whether Cc1nc(COc2ccc(Oc3nccs3)cc2)oc1C shows inhibition of 90% or higher.
[out] No

[in] Hi, just wondering whether CC[N+](CC)=c1ccc2nc3c(cc(N)c4ccccc43)oc-2c1 shows inhibition of 90% or higher.
[out] Yes

[in] Hi, just wondering whether O=C(Nc1cnc(-c2ccccc2)nc1)C1CCCC1 shows inhibition of 90% or higher.
[out] No

[in] Hi, just wondering whether COc1cccc(C(=O)Nc2cc(C3CC3)nn2-c2nc(C)cc(=O)[nH]2)c1OC shows inhibition of 90% or higher.
[out] Yes

[in] Hi, just wondering whether Cc1ccc(C)c(-c2csc(NC(=O)c3cccs3)n2)c1 shows inhibition of 90% or higher.
[out] No

[in] Hi, just wondering whether c1ccc(-c2cc(Sc3nnc(-c4ccncc4)o3)n3ncnc3n2)cc1 shows inhibition of 90% or higher.
[out] Yes

[in] Hi, just wondering whether O=C(NNC(=O)C1C2C=CC(C2)C1C(=O)O)c1ccc(OC2CCCC2)cc1 (stereo not drawn) shows inhibition of 90% or higher.
[out] Yes

[in] Hi, just wondering whether C=C(C)NC(=S)Nc1nccs1 shows inhibition of 90% or higher.
[out] No

[in] Hi, just wondering whether CC(C)(C)c1ccc2c(c1)CC(CNC(=O)/C=C/c1ccccc1)O2 (stereo not drawn) shows inhibition of 90% or higher.
[out] No

[in] Hi, just wondering whether Cc1cnc(C(=O)NCc2ccc3c(c2)OCO3)cn1 shows inhibition of 90% or higher.
[out] No

[in] Hi, just wondering whether Cc1cc2c(=O)n(Cc3ccco3)c(SCC(=O)c3cccs3)nc2s1 shows inhibition of 90% or higher.
[out] No

[in] Hi, just wondering whether COCCNc1ncnc2c1c(-c1ccccc1)cn2-c1cccc(Cl)c1 shows inhibition of 90% or higher.
[out] No

[in] Hi, just wondering whether Cc1cccc(Nc2nnc(-c3ccncc3)o2)c1 shows inhibition of 90% or higher.
[out] No

[in] Hi, just wondering whether Cc1cccn2c(=O)nc(SC/C=C/c3ccccc3)nc12 shows inhibition of 90% or higher.
[out] No

---

Test: Mycobacterium tuberculosis growth inhibition, primary screen (AID 1259343)
Settings: at 10 µM
Out of some 6,200 compounds screened, about 2,900 (47%) were called active. No stated cut-off is given here; in the data, active means inhibition above about 50%; inactive means the rest. The set was probably picked from earlier hits. This is one part of the list.
Respond only with the outcome that fits, drawn from 1.0 for active, 0.0 for inactive

[in] Per the records of this test, what outcome belongs to Fc1ccc(-c2nnn(Cc3ccccc3Br)n2)cc1 ?
[out] 0.0

[in] Per the records of this test, what outcome belongs to O=C(c1cc(-c2cccs2)on1)N1CCCC1 ?
[out] 1.0

[in] Per the records of this test, what outcome belongs to O=C(C=Cc1ccc(F)cc1)NCc1ccco1 ?
[out] 0.0

[in] Per the records of this test, what outcome belongs to O=C(C=Cc1ccco1)NC12CC3CC(CC(C3)C1)C2 ?
[out] 1.0

[in] Per the records of this test, what outcome belongs to O=C1N(Cc2ccccc2)C(c2ccc(C(F)(F)F)cc2)C1(F)F (stereo not given) ?
[out] 1.0

[in] Per the records of this test, what outcome belongs to CCOC(=O)C1(CCc2ccccc2)CCCN(Cc2cccn2-c2ncccn2)C1 (stereo not given) ?
[out] 0.0

[in] Per the records of this test, what outcome belongs to Nc1nc(-c2ccccc2Cl)co1 ?
[out] 0.0

[in] Per the records of this test, what outcome belongs to O=C(CCl)N1CCN(c2cccc(Cl)c2)CC1 ?
[out] 1.0

[in] Per the records of this test, what outcome belongs to CN1CC(=O)N(CCCC(=O)Nc2ccc(OCc3ccccc3)cc2)C1=O ?
[out] 1.0

[in] Per the records of this test, what outcome belongs to CCC(CC)C(NC[c-]1[c-][c-][c-][c-]1)c1ccccc1.[Fe].[c-]1[c-][c-][cH-][c-]1 (stereo not given) ?
[out] 0.0

[in] Per the records of this test, what outcome belongs to C=CCn1c(SCCC#N)nc2sc3c(c2c1=O)CCCC3 ?
[out] 1.0

[in] Per the records of this test, what outcome belongs to Oc1ccc(N=Nc2ccc3c(c2)OCO3)c2ccccc12 ?
[out] 0.0

[in] Per the records of this test, what outcome belongs to Brc1ccccc1C=Nc1ccc2c(c1)OCO2 ?
[out] 1.0

[in] Per the records of this test, what outcome belongs to Cc1nn2c(=O)[nH]c(SCc3cccnc3)nc2c1-c1ccccc1 ?
[out] 0.0

[in] Per the records of this test, what outcome belongs to COc1cccc(CC2(CO)CCCN(C(=O)Nc3cccc(C(F)(F)F)c3)C2)c1 (stereo not given) ?
[out] 0.0
